- Test system: DU-145
- test_details: NCI tumour cell line growth inhibition, 48 h
Activity calls are given as the source filed them. Rule as the data show it: active = GI50 up to about 1.1 µM and inactive = higher.
Would you kindly list GI50 for each of these compounds?

Worked examples follow.
COC(=O)[C@H](C)N1C(=O)N[C@@H](C(C)C)C1=O | > 100 µM (inactive)
O=C(Cc1ccc(Cl)c(Cl)c1)NCCCN1CCN(CCCN2CCCCC2)CC1 | 40.5 µM (inactive)
OC1c2ccccc2CCC1C(O)(C(F)(F)F)C(F)(F)F (stereo unspecified) | > 100 µM (inactive)
c1ccc(CN2CCC(=NN3CCCCC3)CC2)cc1 | > 100 µM (inactive)
COC12CCCN1c1ccn(Cc3ccccc3)c(=O)c1C2=O (stereo unspecified) | > 100 µM (inactive)

Okay, now this compound:
So what does the record say about GI50 for COc1cc(C(c2ccc3c(c2)OCO3)N2C(=O)CCC2C(=O)O)cc(OC)c1OC (stereo unspecified) ?
> 100 µM (inactive)

###

- Test system: ACHN
- test_details: NCI tumour cell line growth inhibition, 48 h
Activity calls are given as the source filed them. Rule as the data show it: active = GI50 up to about 1.1 µM and inactive = higher.
Result category, one only: label 1 = active, label 0 = inactive

As a guide, the following entries are already answered.
COc1ccc(C(=O)/C=C/c2ccc(OCC(=N)N)cc2)cc1 | label 0
Cc1ccc(N/N=C2\C3=C(CCC(C)(C)O3)C(=O)c3ccccc32)cc1 | label 0
COc1ccc(/C=C2\CN(C)C/C(=C\c3ccc(OC)c(OC)c3OC)C2=O)c(OC)c1OC | label 1
CCOC(=O)c1c(Cl)nc2ccccc2c1N=[N+]=[N-] | label 0
c1ccc(COc2cccc3ccc[n+](Cc4ccccc4)c23)cc1 | label 0
COc1ccccc1C1c2cc3c(cc2OC(O)(CO)C1C(=O)O)OCO3.COc1ccccc1C1c2cc3c(cc2OC2(O)COC(=O)C12)OCO3 (centres undefined) | label 0

Hey, what did the test say about COC1=CC(=O)OC(/C=C(C)/C=C/C2=C(C)CCCC2(C)C)C1 (centres undefined) ?
label 0

Hey, what did the test say about COc1ccc([C@]23CCN4COC[C@@H]([C@H]42)C2(CC3)OCC(C)(C)CO2)cc1OC ?
label 0

Hey, what did the test say about O=C(Cn1c(=O)ccn(C2OC(CO)C(O)C2F)c1=O)c1ccc(F)cc1 (centres undefined) ?
label 0

###

- System: KM12
- test_details: NCI tumour cell line growth inhibition, 48 h
The source made the active and inactive calls. Rule as the data show it: active = GI50 up to about 1.1 µM and inactive = higher. Starred links: 1 amine or outer side, 2 acyl side, 3 side chain; linkers in the order of their positions; H or OH if unused. Non-standard residues stand in square brackets, D forms with d. Residues, ends and D or L forms follow the SMILES beside them. X41 = CSCCCC(N[*:1])C(=O)[*:2]
Result category, one only: t = active, f = inactive

As a guide, the following entries are already answered.
COc1ccc(C(C#N)NNc2nc(C)cc(O)n2)cc1OC (configuration not stated) | f
O=C1N=C2SC(=S)N=C(S)N2NC12c1ccccc1-c1ccccc12 | f
C=C(C)[C@H]1C2=CC(C)=C(O2)[C@@H](O[C@@H]2c3oc(cc3C)[C@H](C(=C)C)[C@H]3C=C(CC[C@H]2C(=C)C)C(=O)O3)[C@H](C(=C)C)CCC2=C[C@H]1OC2=O | f
CCCC(=O)N[C@H]1CCc2cc(OC)c(OC)c(OC)c2-c2ccc(SC)c(=O)cc21 | t
CN(C)c1ccc(/C=N/NC2=N/C(=C\c3ccco3)C(=O)N2)cc1 | f
COC(=O)/C=C1/N=C(N(C)/N=C/c2ccccc2)NC1=O | f

Hey, what did the test say about CCOC1C(Br)Cn2c(=O)c3cc4ccccc4cc3c(=O)n2C1C (configuration not stated) ?
f

Hey, what did the test say about CCOC(=O)c1cc2c(C(=O)c3ccc([N+](=O)[O-])cc3)c(C(C)=O)ccc2[nH]1 ?
f

Hey, what did the test say about COc1cc(CNC2c3cc4c(cc3C(c3cc(OC)c(OC)c(OC)c3)[C@H]3C(=O)OCC23)OCO4)cc(OC)c1OC (some centres not stated) ?
t

Hey, what did the test say about COc1cc(C2c3cc4c(cc3OC(NNS(=O)(=O)c3ccc(C)cc3)C2C)OCO4)cc(OC)c1OC (configuration not stated) ?
f

Hey, what did the test say about O=C(Cc1ccccc1)NNc1nc(NNC(=O)c2ccncc2)nc(Nc2ccc(Cl)cc2)n1 ?
f

Hey, what did the test say about C=CN1C(=O)OC[C@@H]1c1ccccc1 ?
f

Hey, what did the test say about Clc1ccccc1C(Nc1cnccn1)Nc1cnccn1 ?
f

Hey, what did the test say about CSCCCC(NC(=O)CNC(=O)C1CCCN1C(=O)C(Cc1ccc(O)cc1)NC(=O)C(Cc1ccccc1)NC(=O)C(CCCNC(=N)N)NC(=O)C(CC(=O)O)NC(=O)C1CCCN1C(=O)C(CC(=O)O)NC(=O)C1CCCN1C(=O)C1CCCN1C(=O)CN)C(N)=O (configuration not stated) (H-GPPDPDRFYPG[X41]-NH2; configuration not given here) ?
f

Hey, what did the test say about C[C@@H]1C(=O)O[C@@H]2C[C@@]1(C)[C@@H]1C(=O)C3(O)OC14C2(C)OC(=O)[C@@]4(O)CCC1C3C(O)C=C2CC=CC(=O)[C@@]21C (some centres not stated) ?
f

Hey, what did the test say about C1CCN(CCC2CCCCN2)CC1 (configuration not stated) ?
f

Hey, what did the test say about O=C1NC(O)n2c(=O)[nH]c(=O)n21 (configuration not stated) ?
f
